The reported measurements were obtained from ChEMBL document CHEMBL1130626.

# Measurement target: Dual specificity mitogen-activated protein kinase kinase 1 (Homo sapiens);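 note: MEK inhibition measured as non-competitive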
# Sequence (Q02750 whole entry): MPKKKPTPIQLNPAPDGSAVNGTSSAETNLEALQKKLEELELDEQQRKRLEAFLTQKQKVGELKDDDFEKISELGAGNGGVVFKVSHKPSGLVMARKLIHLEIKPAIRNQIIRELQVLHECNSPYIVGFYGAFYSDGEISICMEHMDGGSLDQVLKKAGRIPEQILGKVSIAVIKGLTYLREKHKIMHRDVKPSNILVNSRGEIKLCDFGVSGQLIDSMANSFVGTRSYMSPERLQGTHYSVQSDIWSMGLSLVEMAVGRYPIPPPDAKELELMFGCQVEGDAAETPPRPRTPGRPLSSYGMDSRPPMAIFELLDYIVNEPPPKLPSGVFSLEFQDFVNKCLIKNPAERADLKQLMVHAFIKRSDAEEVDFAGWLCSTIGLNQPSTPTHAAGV
Outcome measure: IC50

[
  {
    "Smiles code": "N#CC(=C(/N)Sc1ccc(Cl)cc1)/C(C#N)=C(\\N)Sc1ccc(Cl)cc1",
    "Measurement target": "Dual specificity mitogen-activated protein kinase kinase 1 (Homo sapiens)",
    "IC50": "2100 nM"
  },
  {
    "Smiles code": "N#CC(=C(/N)Sc1ccc(O)cc1)/C(C#N)=C(\\N)Sc1ccc(O)cc1",
    "Measurement target": "Dual specificity mitogen-activated protein kinase kinase 1 (Homo sapiens)",
    "IC50": "400 nM"
  },
  {
    "Smiles code": "N#CC(=C(/N)Sc1ccccc1Cl)/C(C#N)=C(\\N)Sc1ccccc1Cl",
    "Measurement target": "Dual specificity mitogen-activated protein kinase kinase 1 (Homo sapiens)",
    "IC50": "900 nM"
  }
]

Field: next compound
Recorded IC50 (compound COc1ccccc1S/C(N)=C(C#N)/C(C#N)=C(\N)Sc1ccccc1OC ): 4500 nM
